target: Epidermal growth factor receptor (Homo sapiens, UniProt P00533, C797S/L858R/T790M)
Sequence (P00533 25-1210 T790M/C797S/L858R limits assumed): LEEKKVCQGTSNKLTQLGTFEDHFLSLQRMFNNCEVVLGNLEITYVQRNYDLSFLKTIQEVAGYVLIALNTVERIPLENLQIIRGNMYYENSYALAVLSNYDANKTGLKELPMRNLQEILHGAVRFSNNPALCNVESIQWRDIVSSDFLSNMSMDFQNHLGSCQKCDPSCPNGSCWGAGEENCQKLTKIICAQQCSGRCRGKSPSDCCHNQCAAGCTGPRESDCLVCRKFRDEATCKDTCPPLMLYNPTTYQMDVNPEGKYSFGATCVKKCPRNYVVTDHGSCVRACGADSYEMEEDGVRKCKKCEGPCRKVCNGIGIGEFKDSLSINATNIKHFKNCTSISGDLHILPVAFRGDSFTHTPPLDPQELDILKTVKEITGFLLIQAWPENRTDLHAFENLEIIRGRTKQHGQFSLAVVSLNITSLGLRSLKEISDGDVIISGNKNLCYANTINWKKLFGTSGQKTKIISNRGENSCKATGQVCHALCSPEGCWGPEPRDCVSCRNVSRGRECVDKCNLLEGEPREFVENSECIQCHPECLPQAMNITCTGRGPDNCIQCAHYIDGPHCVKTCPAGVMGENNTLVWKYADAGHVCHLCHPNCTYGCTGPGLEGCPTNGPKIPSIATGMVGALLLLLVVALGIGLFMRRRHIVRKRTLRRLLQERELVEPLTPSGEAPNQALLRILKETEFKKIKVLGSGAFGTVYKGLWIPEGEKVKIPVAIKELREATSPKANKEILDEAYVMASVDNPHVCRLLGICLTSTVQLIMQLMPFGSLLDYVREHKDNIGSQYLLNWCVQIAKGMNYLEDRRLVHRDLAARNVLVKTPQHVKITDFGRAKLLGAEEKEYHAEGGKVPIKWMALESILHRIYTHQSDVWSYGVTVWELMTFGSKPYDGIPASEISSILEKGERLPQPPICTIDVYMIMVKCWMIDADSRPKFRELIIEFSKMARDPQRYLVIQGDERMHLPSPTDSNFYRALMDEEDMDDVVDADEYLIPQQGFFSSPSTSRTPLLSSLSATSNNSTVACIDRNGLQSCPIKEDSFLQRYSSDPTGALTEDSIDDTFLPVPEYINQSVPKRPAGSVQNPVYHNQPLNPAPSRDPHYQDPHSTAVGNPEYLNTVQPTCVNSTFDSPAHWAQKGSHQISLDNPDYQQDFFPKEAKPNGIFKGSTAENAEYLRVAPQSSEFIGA
ATTRIBUTE_MEASURED: IC50 (nM)

In the examples that follow, each entry is paired with its recorded IC50.
[[record]]
entry_smiles = "COc1ccc(-c2nccn2-c2ccnc(Nc3ccc4c(ccn4CCN(C)C)c3)n2)cc1"
unit_string = "nM"
result_number = 289

[[record]]
entry_smiles = "CCS(=O)(=O)Nc1nc(-c2ccc(F)cc2)c(-c2ccnc(Nc3ccc(N4CCN(C)CC4)cc3)n2)s1"
unit_string = "nM"
result_number = 1.8

[[record]]
entry_smiles = "CN1CCN(c2ccc(Nc3nccc(-n4ccnc4-c4ccc(F)cc4)n3)cc2)CC1"
unit_string = "nM"
result_number = 63

[[record]]
entry_smiles = "CCS(=O)(=O)N1CCC(c2nc(-c3ccc(F)cc3)c(-c3ccnc(Nc4ccc(N5CCN(C)CC5)cc4OC)n3)s2)CC1"
unit_string = "nM"
result_number = 71

[[record]]
entry_smiles = "CCS(=O)(=O)Nc1nc(-c2ccc(F)cc2)c(-c2ccnc(Nc3ccc(N4CCN(C(C)C)CC4)cc3)n2)s1"
unit_string = "nM"
result_number = 3.7


1. CCS(=O)(=O)N1CCC(c2nc(-c3ccc(F)cc3)c(-c3ccnc(Nc4ccc(N5CCN(C)CC5)cc4)n3)s2)CC1
2. CCS(=O)(=O)Nc1nc(-c2ccc(F)cc2)c(-c2ccnc(Nc3ccc(N4CCN(C)CC4)c(C)c3)n2)s1
*Q* Which value of IC50 is smaller, the one for 1 or the one for 2 ? Write down the label attached to your selection.
*A* 2
(2: 3.6 nM, 1: 18 nM)
